Attribution: paper PMC5989765

ASSAY SUMMARY: Study 200912: single dose 100-200 mg, SDD versus nonmicronized API PiB, healthy subjects
Assay type: in vivo, human
EXPERIMENTAL SETUP: human, plasma, oral, 200 mg, single 200 mg API PiB, fasted, without ritonavir, Study 200912; median (range)
MEASURE NAME: Tmax
The reply should read as a number followed by its unit.

Which value of Tmax has been reported for CC(C)C1=C2[C@H]3CC[C@@H]4[C@@]5(C)CC[C@H](OC(=O)CC(C)(C)C(=O)O)C(C)(C)[C@@H]5CC[C@@]4(C)[C@]3(C)CC[C@@]2([C@@H](O)CN(CCN(C)C)Cc2ccc(Cl)cc2)CC1=O in the records?
2.76 h

====

ASSAY SUMMARY: Study 204953 Part 2: repeat dosing for 11 days with RTV QD or 200 mg BID unboosted
Type: in vivo, human
EXPERIMENTAL SETUP: human, plasma, oral, 50 mg, Study day 1, 50 mg QD + RTV (PiB), Study 204953; median (range)
Procedure: This study was planned as an extension of the previously conducted single‐ and multiple‐dose escalation studies described above. […] Extracts were analyzed using HPLC (Shimadzu, Nexera, 30 series) and tandem mass spectrometry detection (HPLC‐MS/MS). […] The lower limit of quantification (LLQ) was 0.5 ng/mL, using a 50 μL aliquot of K2EDTA acidified plasma. The higher limit of quantification (HLQ) was 500 ng/mL. […]
MEASURE NAME: Tmax

Which value of Tmax has been reported for CC(C)C1=C2[C@H]3CC[C@@H]4[C@@]5(C)CC[C@H](OC(=O)CC(C)(C)C(=O)O)C(C)(C)[C@@H]5CC[C@@]4(C)[C@]3(C)CC[C@@]2([C@@H](O)CN(CCN(C)C)Cc2ccc(Cl)cc2)CC1=O in the records?
2.5 h

====

ASSAY SUMMARY: Study 204953 Part 2: repeat dosing for 11 days with RTV QD or 200 mg BID unboosted
Assay type: in vivo, human
EXPERIMENTAL SETUP: human, plasma, oral, 200 mg, Study day 1, 200 mg bid without RTV (capsules), τ = 12 hours, Study 204953; median (range); read-out: Cτ
MEASURE NAME: concentration at 12 h (ng/mL)
Number in ng/mL, nothing else.

Which value of concentration at 12 h has been reported for CC(C)C1=C2[C@H]3CC[C@@H]4[C@@]5(C)CC[C@H](OC(=O)CC(C)(C)C(=O)O)C(C)(C)[C@@H]5CC[C@@]4(C)[C@]3(C)CC[C@@]2([C@@H](O)CN(CCN(C)C)Cc2ccc(Cl)cc2)CC1=O in the records?
20

====

ASSAY SUMMARY: Study 200912: single dose 100-200 mg, SDD versus nonmicronized API PiB, healthy subjects
Type: in vivo, human
EXPERIMENTAL SETUP: human, plasma, oral, 20 mg, single 20 mg API PiB, fasted, with ritonavir (predosing 10 days), Study 200912; geometric mean (95% CI); read-out: AUC(0‐∞)
Procedure: This was a double‐blind, randomized, placebo‐controlled, single‐dose escalation study to investigate the safety, tolerability, and PK of higher single doses of GSK2838232 (Part A) and to evaluate the relative bioavailability of the SDD and crystalline Active Pharmaceutical Ingredient (API) of GSK2838232 (Part B) in healthy subjects dosed as PiB. […] Extracts were analyzed using HPLC (Shimadzu, Nexera, 30 series) and tandem mass spectrometry detection (HPLC‐MS/MS). […]
MEASURE NAME: AUC (ng·h/mL)
Number in ng·h/mL, nothing else.

Which value of AUC has been reported for CC(C)C1=C2[C@H]3CC[C@@H]4[C@@]5(C)CC[C@H](OC(=O)CC(C)(C)C(=O)O)C(C)(C)[C@@H]5CC[C@@]4(C)[C@]3(C)CC[C@@]2([C@@H](O)CN(CCN(C)C)Cc2ccc(Cl)cc2)CC1=O [GSK2838232] in the records?
224
